Just for reference, patent US20250277030A1 is where these values come from.

Target: T1, NaPi2b expressed on IGROV-1 cells (Homo sapiens, UniProt O95436)
T1 construct: IGROV-1 cells express endogenous NaPi2b at a high level; endogenous in cells; host or cells: IGROV-1
T1 sequence (O95436 1-690): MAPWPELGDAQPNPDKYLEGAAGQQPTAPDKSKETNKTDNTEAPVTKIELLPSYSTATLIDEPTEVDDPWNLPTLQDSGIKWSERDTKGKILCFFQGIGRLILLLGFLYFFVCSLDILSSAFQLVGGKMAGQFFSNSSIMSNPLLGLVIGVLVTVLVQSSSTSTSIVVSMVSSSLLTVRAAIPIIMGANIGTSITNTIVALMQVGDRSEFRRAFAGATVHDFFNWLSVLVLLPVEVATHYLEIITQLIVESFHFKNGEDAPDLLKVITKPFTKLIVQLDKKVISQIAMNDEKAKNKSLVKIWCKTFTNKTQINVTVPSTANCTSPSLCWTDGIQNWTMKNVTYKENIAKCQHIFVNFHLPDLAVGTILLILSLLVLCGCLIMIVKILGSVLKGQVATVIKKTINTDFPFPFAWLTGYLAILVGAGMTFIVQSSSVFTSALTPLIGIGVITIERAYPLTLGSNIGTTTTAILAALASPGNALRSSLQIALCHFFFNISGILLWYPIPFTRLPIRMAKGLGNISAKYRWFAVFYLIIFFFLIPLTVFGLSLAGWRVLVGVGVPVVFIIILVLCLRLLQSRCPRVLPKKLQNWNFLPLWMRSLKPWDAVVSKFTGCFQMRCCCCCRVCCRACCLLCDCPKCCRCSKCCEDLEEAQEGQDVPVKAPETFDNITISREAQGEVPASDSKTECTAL
Test: Cellular binding of bivalent antibodies to IGROV-1 cells by flow cytometry (Example 13)
Conditions: IGROV-1, 24 hours at 4° C.; NB = no cellular binding
Entries and their measured Curve Hill Slope (h) follow.
// print number alone

Example entries and their recorded answers appear below.
molecule	observable	measurement
v18993-DL2 (conjugate, chains of the INN, looked up, drug-linker DL2) VH: EVQLVESGGGLVQPGGSLRLSCAASGFSFSDFAMSWVRQAPGKGLEWVATIGRVAFHTYYPDSMKGRFTISRDNSKNTLYLQMNSLRAEDTAVYYCARHRGFDVGHFDFWGQGTLVTVSS VL: DIQMTQSPSSLSASVGDRVTITCRSSETLVHSSGNTYLEWYQQKPGKAPKLLIYRVSNRFSGVPSRFSGSGSGTDFTLTISSLQPEDFATYYCFQGSFNPLTFGQGTKVEIK	Curve Hill Slope (h)	1.1
v29455: humanized anti-NaPi2b IgG1/kappa antibody H2L2; VH SEQ ID NO:25, VL SEQ ID NO:29 (antibody, V domains shown, v29451, v29455, v29459 VH (H2); v29453, v29454, v29455, v29456 VL (L2)) VH: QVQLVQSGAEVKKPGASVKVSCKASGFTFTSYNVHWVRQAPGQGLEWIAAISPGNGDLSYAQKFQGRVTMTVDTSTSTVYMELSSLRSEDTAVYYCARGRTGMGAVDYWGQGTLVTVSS VL: DVQMTQSPSSLSASVGDRVTITCRASQDVYSYLNWYQQKPGKAVKLLIYYTSRLQSGVPSRFSGSGSGTDYTLTISSLQPEDFATYYCQQYNIFPWTFGQGTKLEIK	Curve Hill Slope (h)	1.1
v29456: humanized anti-NaPi2b IgG1/kappa antibody H1L2; VH SEQ ID NO:24, VL SEQ ID NO:29 (antibody, V domains shown, v29452, v29456, v29460 VH (H1); v29453, v29454, v29455, v29456 VL (L2)) VH: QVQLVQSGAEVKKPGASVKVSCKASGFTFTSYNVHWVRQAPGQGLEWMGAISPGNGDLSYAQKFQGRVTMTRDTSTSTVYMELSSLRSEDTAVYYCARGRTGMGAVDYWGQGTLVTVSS VL: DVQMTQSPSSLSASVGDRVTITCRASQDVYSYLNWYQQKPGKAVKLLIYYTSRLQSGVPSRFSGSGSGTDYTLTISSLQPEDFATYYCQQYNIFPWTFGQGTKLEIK	Curve Hill Slope (h)	1.1

Alright, here's another molecule for you.
**Query** Requested field: Curve Hill Slope (h). Item: v29452: humanized anti-NaPi2b IgG1/kappa antibody H1L3; VH SEQ ID NO:24, VL SEQ ID NO:30 (antibody, V domains shown, v29452, v29456, v29460 VH (H1); v29449, v29450, v29451, v29452 VL (L3)) VH: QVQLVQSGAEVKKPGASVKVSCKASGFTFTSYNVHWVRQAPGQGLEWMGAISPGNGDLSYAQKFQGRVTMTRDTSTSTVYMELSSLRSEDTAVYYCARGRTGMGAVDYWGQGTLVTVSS VL: DVQMTQSPSSLSASVGDRVTITCRASQDVYSYLNWYQQKPGKAVKLLIYYTSRLQSGVPSRFSGSGSGTDYTLTISSLQPEDIATYYCQQYNIFPWTFGQGTKLEIK
**Result** 0.9
